Molecular target: Son of Sevenless (SOS) (Homo sapiens, UniProt Q07889)
Sequence (Q07889 564-1049 limits assumed): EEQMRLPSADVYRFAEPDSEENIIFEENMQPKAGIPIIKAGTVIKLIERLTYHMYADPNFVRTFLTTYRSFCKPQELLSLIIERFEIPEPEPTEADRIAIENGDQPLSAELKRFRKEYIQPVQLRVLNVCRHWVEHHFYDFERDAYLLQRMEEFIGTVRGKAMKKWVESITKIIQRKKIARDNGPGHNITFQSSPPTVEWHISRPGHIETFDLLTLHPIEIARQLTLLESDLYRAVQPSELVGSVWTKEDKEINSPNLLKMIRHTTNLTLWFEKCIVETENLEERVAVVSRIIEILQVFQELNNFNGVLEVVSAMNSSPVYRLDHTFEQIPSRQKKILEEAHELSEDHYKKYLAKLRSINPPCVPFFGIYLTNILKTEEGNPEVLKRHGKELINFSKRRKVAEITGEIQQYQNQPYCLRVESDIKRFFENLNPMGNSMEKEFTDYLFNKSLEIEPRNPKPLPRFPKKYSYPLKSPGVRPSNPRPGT
Structures can show the parent of a compound that is named as a salt.
assay.readout: Ki

Consider the reported Ki for these molecules:
>>> measured("Cc1cnc2nc(N3CCC(N)C3)n(Cc3ccc(F)c(C)c3)c2c1 (stereo not shown)")
"> 5000 nM"
>>> measured("Cc1cc2c(nc(NCCN)n2Cc2ccc(F)c(C)c2)c(-c2ccccc2C)n1")
"> 5000 nM"

**Q:** What measured Ki goes with COc1ccccc1-c1cccc2c1nc(N1CCNCC1)n2Cc1ccc(F)c(Cl)c1 [Example 81, trifluoroacetate] ?
**A:** 500 to 1000 nM

**Q:** Next up: `Cc1cc(Cn2c(NCCN)nc3c(-c4ccccc4OC(C)C)cc(Cl)cc32)cc(C)c1F`
**A:** < 500 nM

**Q:** Next up: CC(C)CN1CC[C@@H](C(=O)c2ccccc2)[C@H]1c1cc(Cl)cc2c1nc(N1CCNCC1)n2Cc1ccc(F)c(Cl)c1 [Example 150, trifluoroacetate]
**A:** > 5000 nM

**Q:** Next up: N[C@@H](Cc1ccccc1)c1cc(Cl)cc2c1nc(N1CCNCC1)n2Cc1ccc(F)c(Cl)c1 [Example 166, trifluoroacetate]
**A:** 500 to 1000 nM

**Q:** Next up: CCc1cc(Cn2c(NCCN)nc3c(-c4c(C)nn(C)c4C)c(C)c(C)cc32)ccc1Cl [Example 115, trifluoroacetate]
**A:** > 5000 nM

----------
Target: UniProtKB Q07889
Sequence (Q07889 564-1049 limits assumed): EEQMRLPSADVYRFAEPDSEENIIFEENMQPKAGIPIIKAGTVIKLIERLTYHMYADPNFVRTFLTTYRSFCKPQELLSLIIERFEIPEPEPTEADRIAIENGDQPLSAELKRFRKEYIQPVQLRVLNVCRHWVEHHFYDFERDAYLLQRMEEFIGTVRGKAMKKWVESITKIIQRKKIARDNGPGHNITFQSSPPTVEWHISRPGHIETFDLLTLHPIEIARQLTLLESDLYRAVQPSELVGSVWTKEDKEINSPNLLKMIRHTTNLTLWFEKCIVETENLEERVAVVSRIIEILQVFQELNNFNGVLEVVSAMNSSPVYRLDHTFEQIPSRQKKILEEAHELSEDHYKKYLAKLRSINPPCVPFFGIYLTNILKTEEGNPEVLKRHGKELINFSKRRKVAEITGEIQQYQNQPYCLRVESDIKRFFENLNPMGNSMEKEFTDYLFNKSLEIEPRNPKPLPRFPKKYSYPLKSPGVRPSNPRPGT
Where a name gives a salt, the structure may show the parent alone.
assay.readout: Ki

>>> measured("Cc1cc2c(nc(N3CCNCC3)n2Cc2cc(C)c(F)c(C)c2)c(CCN)c1C [Example 102, trifluoroacetate]")
"> 5 µM"
>>> measured("Cc1cc(-c2ccccc2Cl)c2nc(N3CCNCC3)n(Cc3ccc(F)c(Cl)c3)c2c1 [Example 118, trifluoroacetate]")
"< 0.5 µM"
>>> measured("Cc1cc(-c2ccccc2F)c2nc(N3CCNCC3)n(Cc3ccc(F)c(Cl)c3)c2c1 [Example 119, trifluoroacetate]")
"< 0.5 µM"
>>> measured("Cc1cc2c(nc(N3CCNCC3)n2Cc2ccc(F)c(Cl)c2)c(-c2ccccc2)c1C [Example 104, trifluoroacetate]")
"1 to 5 µM"
>>> measured("CCN(CC)Cc1cc(Cl)cc2c1nc(N1CCNCC1)n2Cc1ccc(F)c(Cl)c1 [Example 136, trifluoroacetate]")
"1 to 5 µM"
>>> measured("OCc1cc(Cl)cc2c1nc(N1CCNCC1)n2Cc1ccc(F)c(Cl)c1 [Example 278]")
"1 to 5 µM"
>>> measured("CCc1cc2c(cc1C)nc(N1CCNCC1)n2Cc1ccc(F)c(CC)c1 [Example 67, trifluoroacetate]")
"> 5 µM"
>>> measured("Fc1ccc(Cn2c(NC3CCNC3)nc3ccc(Cl)cc32)cc1Cl (stereo not drawn) [Example 77, trifluoroacetate]")
"0.5 to 1 µM"

Next compound, Ki to be filled in.
**Q:** What measured Ki goes with Cc1cc(-c2ccccc2C)c2nc(N3CCNCC3)n(Cc3ccc(F)c(Cl)c3)c2c1 [Example 120, trifluoroacetate] ?
**A:** < 0.5 µM

----------
molecular target: Ras GEF SOS (Son of Sevenless) (Homo sapiens); assay: SOS-mediated nucleotide exchange on Ras (BODIPY-GDP fluorescence); settings: SOS-mediated exchange of BODIPY-GDP for GTP on Ras
Counter-ions that a name gives are not always drawn.
assay.readout: EC50

>>> measured("Fc1ccc(Cn2c(N3CCNCC3)nc3ccc(C4CC4)cc32)cc1Cl [Example 62, trifluoroacetate]")
"5 to 30 µM"
>>> measured("Cc1ccc2nc(NCCN)n(Cc3ccc(F)c(Cl)c3)c2c1 [Example 60, trifluoroacetate]")
"1 to 5 µM"
>>> measured("Cc1cc(Cn2c(NCCN)nc3c(N4CCC(N)CC4)cc(Cl)cc32)cc(C)c1F [Example 298]")
"< 1 µM"
>>> measured("Fc1ccc(Cn2c(N3CCNCC3)nc3c(-c4ccc(C(F)(F)F)cc4)cccc32)cc1Cl [Example 87]")
"5 to 30 µM"
>>> measured("Cc1cc2nc(NCCN)n(Cc3cccc(Br)c3)c2cc1C [Example 35, trifluoroacetate]")
"1 to 5 µM"

**Q:** What measured EC50 goes with Cc1cc2nc(NCCN(C)C)n(Cc3cc(C)c(F)c(C)c3)c2cc1C [Example 44, trifluoroacetate] ?
**A:** 5 to 30 µM

**Q:** Next up: Cc1cc2nc(N3CCNCC3)n(Cc3cccc(C(F)(F)F)c3)c2cc1C [Example 32, trifluoroacetate]
**A:** 5 to 30 µM

**Q:** Next up: Cc1cc2nc(NCCN)n(Cc3ccc(F)c(Cl)c3)c2cc1Br [Example 64, trifluoroacetate]
**A:** 1 to 5 µM

**Q:** Next up: Cc1cc2nc(N3CCN(C)CC3)n(Cc3ccc(F)cc3)c2cc1C [Example 24, trifluoroacetate]
**A:** 1 to 5 µM

**Q:** Next up: CC(C)N1CC[C@@H](C(=O)c2ccccc2)[C@@H]1c1cc(Cl)cc2c1nc(N1CCNCC1)n2Cc1ccc(F)c(Cl)c1 [Example 153, trifluoroacetate]
**A:** 5 to 30 µM

**Q:** Next up: Cc1cc2c(nc(NCCN)n2Cc2ccc(F)c(Cl)c2)c(CN2CCCC2)c1C [Example 146, trifluoroacetate]
**A:** 1 to 5 µM

**Q:** Next up: Cc1cc(Cn2c(N3CCNCC3)nc3c(-c4ccccc4)nccc32)ccc1F [Example 220]
**A:** 5 to 30 µM

**Q:** Next up: Cc1cc2c(nc(N3CCNCC3)n2Cc2ccc(F)c(Cl)c2)c(-c2ccccc2C(C)C)c1C [Example 109]
**A:** 1 to 5 µM

**Q:** Next up: Cc1cc2nc(NCCN)n(CC3CCCCC3)c2cc1C [Example 38, trifluoroacetate]
**A:** 5 to 30 µM

**Q:** Next up: Cc1cc2c(nc(N3CCNCC3)n2Cc2ccc(Cl)cc2)c(-c2ccccc2F)c1C [Example 107, trifluoroacetate]
**A:** 1 to 5 µM

**Q:** Next up: Fc1ccc(Cn2c(N3CCNCC3)nc3c(-c4cccnc4OCc4ccccc4)cccc32)cc1Cl [Example 266]
**A:** 5 to 30 µM

----------
biological target: Ras GEF SOS (Son of Sevenless) (Homo sapiens); assay: SOS-mediated nucleotide exchange on Ras (BODIPY-GDP fluorescence); details: SOS-mediated exchange of BODIPY-GDP for GTP on Ras
pEC50: −log10 of the molar value. Structures can show the parent of a compound that is named as a salt.
assay.readout: pEC50

>>> measured("Fc1ccc(Cn2c(C3CCNCC3)nc3ccccc32)cc1 [Example 56, trifluoroacetate]")
"4.52 to 5.30"
>>> measured("C=C[C@@H](N)c1cc(C)cc2c1nc(N1CCNCC1)n2Cc1cc(C)c(F)c(C)c1 [Example 163, trifluoroacetate]")
"5.30 to 6.00"
>>> measured("C=C[C@H](N)c1cc(Cl)cc2c1nc(NCCN)n2Cc1cc(C)c(F)c(C)c1 [Example 156, trifluoroacetate]")
"> 6.00"

**Q:** What measured pEC50 goes with Cc1cc(-c2ccccc2C)c2nc(N3CCNCC3)n(Cc3ccc(F)c(Cl)c3)c2c1 [Example 120, trifluoroacetate] ?
**A:** 5.30 to 6.00

**Q:** Next up: Fc1ccc(Cn2c(N3CCNCC3)nc3ccccc32)cc1Cl [Example 7, trifluoroacetate]
**A:** 4.52 to 5.30

**Q:** Next up: Cc1cc2c(cc1C)N(Cc1cccc(Br)c1)C1=NCCCN12 [Example 215]
**A:** 4.52 to 5.30

**Q:** Next up: Cc1cnc2nc(NCCN)n(Cc3ccc(F)c(Cl)c3)c2c1 [Example 246]
**A:** 5.30 to 6.00
